molecular target: rat brain PKC isozyme mixture; experiment: Protein Kinase C (Isozyme Mix) Assay; type: binding; settings: rat brain PKC isozyme mixture; read-out: Binding Affinity
readout kind: Ki
Output should be the measured figure followed by the unit it is expressed in.

Exercise: So what's the measured Ki for this one? CCCCCCCC(=O)O[C@H]1/C(=C/C(=O)OC)C[C@H]2C[C@H](CO)OC(=O)C[C@H](O)CCO[C@H](c3ccc(-c4ccccc4)cc3)C[C@@H]3CCO[C@H](/C=C/C(C)(C)[C@]1(O)O2)O3 [Formula 19B.1]
Key: 3.1 nM

Exercise: So what's the measured Ki for this one? CCCCCCCC(=O)O[C@H]1/C(=C/C(=O)OC)C[C@H]2C[C@H](CO)OC(=O)C[C@H](O)CCO[C@H](c3ccccc3)C[C@@H]3CCO[C@H](/C=C/C(C)(C)[C@]1(O)O2)O3 [Formula 19B.0]
Key: 2.3 nM

Exercise: So what's the measured Ki for this one? CCCCCCCC(=O)O[C@H]1/C(=C/C(=O)OC)C[C@H]2C[C@H](CO)OC(=O)C[C@H](O)CCO[C@H](c3ccc(CCCOCCOCC)cc3)C[C@@H]3CCO[C@H](/C=C/C(C)(C)[C@]1(O)O2)O3 [Formula 19B.2]
Key: 3.8 nM

###

biological target: UniProt:Q05655; assay: PKCδ-C1B Assay; type: binding
Sequence (Q05655 whole entry, looked up): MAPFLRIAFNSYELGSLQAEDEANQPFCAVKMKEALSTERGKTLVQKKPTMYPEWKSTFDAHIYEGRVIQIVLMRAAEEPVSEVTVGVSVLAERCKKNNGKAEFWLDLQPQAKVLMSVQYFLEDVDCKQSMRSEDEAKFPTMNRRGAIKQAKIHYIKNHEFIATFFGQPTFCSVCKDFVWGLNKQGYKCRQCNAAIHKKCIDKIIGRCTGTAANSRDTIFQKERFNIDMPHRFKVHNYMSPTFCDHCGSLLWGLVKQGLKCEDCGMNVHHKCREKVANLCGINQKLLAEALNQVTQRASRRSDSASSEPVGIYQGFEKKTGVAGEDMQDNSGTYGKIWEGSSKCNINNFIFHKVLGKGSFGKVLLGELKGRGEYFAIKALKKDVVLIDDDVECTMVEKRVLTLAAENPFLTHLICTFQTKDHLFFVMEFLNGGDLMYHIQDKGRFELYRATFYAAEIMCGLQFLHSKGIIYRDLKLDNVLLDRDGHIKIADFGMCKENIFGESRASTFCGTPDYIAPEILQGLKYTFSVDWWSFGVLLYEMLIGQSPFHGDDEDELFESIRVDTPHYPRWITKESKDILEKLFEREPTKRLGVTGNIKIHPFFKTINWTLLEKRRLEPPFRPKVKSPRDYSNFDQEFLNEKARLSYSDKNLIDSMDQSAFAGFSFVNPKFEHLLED
readout kind: pKi
Note: pKi values are expressed as the negative base-10 logarithm of concentration in M.

Exercise: So what's the measured pKi for this one? COC(=O)/C=C1\C[C@H]2C[C@H]([C@@H](C)O)OC(=O)C[C@H](O)C[C@@H]3CCC[C@H](C[C@@H]4CCO[C@H](/C=C/C(C)(C)[C@](O)(O2)[C@H]1OC(C)=O)O4)O3
Key: 6.63

###

target: rat brain PKC isozyme mixture; assay: Protein Kinase C (Isozyme Mix) Assay; assay type: binding; conditions: rat brain PKC isozyme mixture; read-out: Binding Affinity
readout kind: pKi
Note: pKi values are expressed as the negative base-10 logarithm of concentration in M.

Exercise: So what's the measured pKi for this one? CCCCCC/C=C/c1ccc([C@@H]2C[C@@H]3CCO[C@H](/C=C/C(C)(C)[C@]4(O)O[C@@H](C/C(=C\C(=O)OC)[C@@H]4OC(=O)CCCCCCC)C[C@H](CO)OC(=O)C[C@H](O)CCO2)O3)cc1 [Formula 19B.3]
Key: 8.34

Exercise: So what's the measured pKi for this one? CCCCCCCC(=O)O[C@H]1/C(=C/C(=O)OC)C[C@H]2C[C@H](CO)OC(=O)C[C@H](O)CCO[C@H](c3ccc(Br)cc3)C[C@@H]3CCO[C@H](/C=C/C(C)(C)[C@]1(O)O2)O3 [Formula 18C]
Key: 8.80

###

target: UniProtKB Q05655; test: PKCδ-C1B Assay; assay type: binding; conditions: competition with tritiated phorbol 12,13-dibutyrate
readout kind: pKi
Note: pKi values are expressed as the negative base-10 logarithm of concentration in M.

Exercise: So what's the measured pKi for this one? CCCCCCCC(=O)OC1C(=CC(=O)OC)CC2CC(CO)OC(=O)CC(O)CC3CCCC(CC4CCOC(C=CC(C)(C)C1(O)O2)O4)O3 (centres unmarked) [Formula IIa (702.1)]
Key: 9.52

Exercise: So what's the measured pKi for this one? CCCCCCC(=O)OC1C(=CC(=O)OC)CC2CC(C(C)O)OC(=O)CC(O)CC3CCCC(CC4CCOC(C=CC(C)(C)C1(O)O2)O4)O3 (centres unmarked) [Formula 702.3]
Key: 7.46
